# System: Haemophilus parasuis
# assayProcedure: in vitro susceptibility, MIC by mini broth dilution
# Format: cell-based
# Method: in vitro tests of susceptibility of the compounds according to the present disclosure against bacterial strains commonly used in laboratories. […] The MICs (minimum inhibitory concentration) of the medicaments prepared according to the examples on the following bacterial strains were measured through mini broth dilution technique. […] The dilution ratio was recorded, and the bacterial liquid for the tests was diluted according to the recorded dilution ratio. […]
endpointLabel: MIC values, Haemophilus parasuis (ug/mi)
# unit: ug/mi | format: bare number

Example molecules with recorded MIC values, Haemophilus parasuis:
CC[C@H]1OC(=O)[C@H](C)[C@@H](O[C@H]2C[C@@](C)(OC)[C@](O)(CNc3ccc(OC)cc3)[C@H](C)O2)[C@H](C)[C@@H](O[C@@H]2O[C@H](C)C[C@H](N(C)C)[C@H]2O)[C@](C)(O)C[C@@H](C)NC[C@H](C)[C@@H](O)[C@]1(C)O [syzx-83] ... 0.25
CCC(NC[C@]1(O)[C@H](C)O[C@@H](O[C@H]2[C@H](C)[C@@H](O[C@@H]3O[C@H](C)C[C@H](N(C)C)[C@H]3O)[C@](C)(O)C[C@@H](C)NC[C@H](C)[C@@H](O)[C@](C)(O)[C@@H](CC)OC(=O)[C@@H]2C)C[C@@]1(C)OC)C(=O)O (stereo partly shown) [syzx-41] ... 1
CCCN1C[C@H](C)[C@@H](O)[C@](C)(O)[C@@H](CC)OC(=O)[C@H](C)[C@@H](O[C@H]2C[C@@](C)(OC)[C@](O)(CNC(=O)C(F)(F)F)[C@H](C)O2)[C@H](C)[C@@H](O[C@@H]2O[C@H](C)C[C@H](N(C)C)[C@H]2O)[C@](C)(O)C[C@H]1C [syzx-137] ... 0.5

Query: What measured MIC values, Haemophilus parasuis goes with CC[C@H]1OC(=O)[C@H](C)[C@@H](O[C@H]2C[C@@](C)(OC)[C@](O)(CNCc3ccc(OC)cc3)[C@H](C)O2)[C@H](C)[C@@H](O[C@@H]2O[C@H](C)C[C@H](N(C)C)[C@H]2O)[C@](C)(O)C[C@@H](C)NC[C@H](C)[C@@H](O)[C@]1(C)O [syzx-18] ?
Reply: 0.5

Query: Any idea what MIC values, Haemophilus parasuis was measured for CCCN1C[C@H](C)[C@@H](O)[C@](C)(O)[C@@H](CC)OC(=O)[C@H](C)[C@@H](O[C@H]2C[C@@](C)(OC)[C@](O)(CNC3CC3)[C@H](C)O2)[C@H](C)[C@@H](O[C@@H]2O[C@H](C)C[C@H](N(C)C)[C@H]2O)[C@](C)(O)C[C@H]1C [syzx-217] ?
Reply: 0.25

----------
# System: Pasteurella multocida CVCC399
# assayProcedure: in vitro susceptibility, MIC by mini broth dilution
# Assay type: cell-based
# setupConditions: strain CVCC399
endpointLabel: MIC values, Pasteurella multocida CVCC399 (ug/mi)
Write the value in ug/mi as a bare number.

Solved cases (4 shown):
CC[C@H]1OC(=O)[C@H](C)[C@@H](O[C@H]2C[C@@](C)(OC)[C@](O)(CNCCNC)[C@H](C)O2)[C@H](C)[C@@H](O[C@@H]2O[C@H](C)C[C@H](N(C)C)[C@H]2O)[C@](C)(O)C[C@@H](C)NC[C@H](C)[C@@H](O)[C@]1(C)O ... 2
CCCN1C[C@H](C)[C@@H](O)[C@](C)(O)[C@@H](CC)OC(=O)[C@H](C)[C@@H](O[C@H]2C[C@@](C)(OC)[C@](O)(CNC3CC3)[C@H](C)O2)[C@H](C)[C@@H](O[C@@H]2O[C@H](C)C[C@H](N(C)C)[C@H]2O)[C@](C)(O)C[C@H]1C ... 0.5
CCCN1C[C@H](C)[C@@H](O)[C@](C)(O)[C@@H](CC)OC(=O)[C@H](C)[C@@H](O[C@H]2C[C@@](C)(OC)[C@](O)(CNCc3cnc(C)cn3)[C@H](C)O2)[C@H](C)[C@@H](O[C@@H]2O[C@H](C)C[C@H](N(C)C)[C@H]2O)[C@](C)(O)C[C@H]1C ... 1
CC[C@H]1OC(=O)[C@H](C)[C@@H](O[C@H]2C[C@@](C)(OC)[C@](O)(CNc3ccccc3F)[C@H](C)O2)[C@H](C)[C@@H](O[C@@H]2O[C@H](C)C[C@H](N(C)C)[C@H]2O)[C@](C)(O)C[C@@H](C)NC[C@H](C)[C@@H](O)[C@]1(C)O [syzx-95] ... 2

Query: Look up MIC values, Pasteurella multocida CVCC399: CC[C@H]1OC(=O)[C@H](C)[C@@H](O[C@H]2C[C@@](C)(OC)[C@](O)(Cn3cccc3)[C@H](C)O2)[C@H](C)[C@@H](O[C@@H]2O[C@H](C)C[C@H](N(C)C)[C@H]2O)[C@](C)(O)C[C@@H](C)NC[C@H](C)[C@@H](O)[C@]1(C)O
Reply: 0.25

Query: For CCC1OC(=O)C(C)C(OC2CC(C)(OC)C(O)(CNCc3ccc(C)o3)C(C)O2)C(C)C(OC2OC(C)CC(N(C)C)C2O)C(C)(O)CC(C)NCC(C)C(O)C1(C)O (centres unmarked) , what is its reported MIC values, Pasteurella multocida CVCC399?
Reply: 0.5

Query: I am curious: what MIC values, Pasteurella multocida CVCC399 value has been reported for CCCN1CC(C)C(O)C(C)(O)C(CC)OC(=O)C(C)C(OC2CC(C)(OC)C(O)(Cn3ccnn3)C(C)O2)C(C)C(OC2OC(C)CC(N(C)C)C2O)C(C)(O)CC1C (centres unmarked) ?
Reply: 1

Query: Which MIC values, Pasteurella multocida CVCC399 is listed for CC[C@H]1OC(=O)[C@H](C)[C@@H](O[C@H]2C[C@@](C)(OC)[C@](O)(C=NNc3ccc(F)cc3)[C@H](C)O2)[C@H](C)[C@@H](O[C@@H]2O[C@H](C)C[C@H](N(C)C)[C@H]2O)[C@](C)(O)C[C@@H](C)NC[C@H](C)[C@@H](O)[C@]1(C)O ?
Reply: 0.25

----------
Measured MIC values, Pasteurella multocida CVCC399 by item
# Test system: Pasteurella multocida CVCC399
# assayProcedure: in vitro susceptibility, MIC by mini broth dilution
# Type: cell-based
# setupConditions: strain CVCC399
Field: numeric (ug/mi). Do not append units.

Study these solved cases before continuing.
CCCN1C[C@H](C)[C@@H](O)[C@](C)(O)[C@@H](CC)OC(=O)[C@H](C)[C@@H](O[C@H]2C[C@@](C)(OC)[C@](O)(CNc3cccc(Br)c3)[C@H](C)O2)[C@H](C)[C@@H](O[C@@H]2O[C@H](C)C[C@H](N(C)C)[C@H]2O)[C@](C)(O)C[C@H]1C [syzx-223] ... 0.5
CC[C@H]1OC(=O)[C@H](C)[C@@H](O[C@H]2C[C@@](C)(OC)[C@](O)(CNc3ccnc(Cl)c3)[C@H](C)O2)[C@H](C)[C@@H](O[C@@H]2O[C@H](C)C[C@H](N(C)C)[C@H]2O)[C@](C)(O)C[C@@H](C)NC[C@H](C)[C@@H](O)[C@]1(C)O [syzx-38] ... 0.5
CC[C@H]1OC(=O)[C@H](C)[C@@H](O[C@H]2C[C@@](C)(OC)[C@](O)(CNCCN3CCCC3)[C@H](C)O2)[C@H](C)[C@@H](O[C@@H]2O[C@H](C)C[C@H](N(C)C)[C@H]2O)[C@](C)(O)C[C@@H](C)NC[C@H](C)[C@@H](O)[C@]1(C)O [syzx-90] ... 2

Here is the next item to consider.
Query: Given the molecule CC[C@H]1OC(=O)[C@H](C)[C@@H](O[C@H]2C[C@@](C)(OC)[C@](O)(CNCCc3ccncc3)[C@H](C)O2)[C@H](C)[C@@H](O[C@@H]2O[C@H](C)C[C@H](N(C)C)[C@H]2O)[C@](C)(O)C[C@@H](C)NC[C@H](C)[C@@H](O)[C@]1(C)O [syzx-91] , what is its reported MIC values, Pasteurella multocida CVCC399?
Reply: 2

----------
# Tested on: Pasteurella multocida CVCC399
# assayProcedure: in vitro susceptibility, MIC by mini broth dilution
# Assay type: cell-based
# setupConditions: strain CVCC399
# Experimental: in vitro tests of susceptibility of the compounds according to the present disclosure against bacterial strains commonly used in laboratories. […] The MICs (minimum inhibitory concentration) of the medicaments prepared according to the examples on the following bacterial strains were measured through mini broth dilution technique. […] The dilution ratio was recorded, and the bacterial liquid for the tests was diluted according to the recorded dilution ratio. […]
endpointLabel: MIC values, Pasteurella multocida CVCC399 (ug/mi)
Could you give me the number in ug/mi? Just the number is fine.

CCCN1C[C@H](C)[C@@H](O)[C@](C)(O)[C@@H](CC)OC(=O)[C@H](C)[C@@H](O[C@H]2C[C@@](C)(OC)[C@](O)(CNC3CCCC3)[C@H](C)O2)[C@H](C)[C@@H](O[C@@H]2O[C@H](C)C[C@H](N(C)C)[C@H]2O)[C@](C)(O)C[C@H]1C [syzx-130] ... 0.5

Query: I would be grateful if you could share the reported MIC values, Pasteurella multocida CVCC399 for CCCN1C[C@H](C)[C@@H](O)[C@](C)(O)[C@@H](CC)OC(=O)[C@H](C)[C@@H](O[C@H]2C[C@@](C)(OC)[C@](O)(CN3CCNCC3)[C@H](C)O2)[C@H](C)[C@@H](O[C@@H]2O[C@H](C)C[C@H](N(C)C)[C@H]2O)[C@](C)(O)C[C@H]1C [syzx-136] .
Reply: 0.5

Query: Requested field: MIC values, Pasteurella multocida CVCC399. Item: CCCN1C[C@H](C)[C@@H](O)[C@](C)(O)[C@@H](CC)OC(=O)[C@H](C)[C@@H](O[C@H]2C[C@@](C)(OC)[C@](O)(CNC(C)CC(=O)O)[C@H](C)O2)[C@H](C)[C@@H](O[C@@H]2O[C@H](C)C[C@H](N(C)C)[C@H]2O)[C@](C)(O)C[C@H]1C (some centres unmarked) [syzx-150]
Reply: 2

Query: What does the data say about its MIC values, Pasteurella multocida CVCC399? Entry: CC[C@H]1OC(=O)[C@H](C)[C@H](O[C@H]2C[C@@](C)(OC)[C@](O)(CNCCc3ccncc3)[C@H](C)O2)[C@H](C)[C@@H](O[C@@H]2O[C@H](C)C[C@H](N(C)C)[C@H]2O)[C@](C)(O)C[C@@H](C)NC[C@H](C)[C@@H](O)[C@]1(C)O [syzx-64]
Reply: 0.25

Query: Name the reported MIC values, Pasteurella multocida CVCC399 value associated with the compound C#CCNC[C@]1(O)[C@H](C)O[C@@H](O[C@H]2[C@H](C)[C@@H](O[C@@H]3O[C@H](C)C[C@H](N(C)C)[C@H]3O)[C@](C)(O)C[C@@H](C)NC[C@H](C)[C@@H](O)[C@](C)(O)[C@@H](CC)OC(=O)[C@@H]2C)C[C@@]1(C)OC [syzx-40]
Reply: 1

Query: Would you mind telling me what MIC values, Pasteurella multocida CVCC399 value was observed for CCCN1C[C@H](C)[C@@H](O)[C@](C)(O)[C@@H](CC)OC(=O)[C@H](C)[C@@H](O[C@H]2C[C@@](C)(OC)[C@](O)(CNCCCC(OC)OC)[C@H](C)O2)[C@H](C)[C@@H](O[C@@H]2O[C@H](C)C[C@H](N(C)C)[C@H]2O)[C@](C)(O)C[C@H]1C [syzx-205] ?
Reply: 4

Query: Given CC[C@H]1OC(=O)[C@H](C)[C@@H](O[C@H]2C[C@@](C)(OC)[C@](O)(CNCCCO)[C@H](C)O2)[C@H](C)[C@@H](O[C@@H]2O[C@H](C)C[C@H](N(C)C)[C@H]2O)[C@](C)(O)C[C@@H](C)NC[C@H](C)[C@@H](O)[C@]1(C)O [syzx-46] , state its recorded MIC values, Pasteurella multocida CVCC399.
Reply: 4

Query: Look up MIC values, Pasteurella multocida CVCC399: CCCN1CC(C)C(O)C(C)(O)C(CC)OC(=O)C(C)C(OC2CC(C)(OC)C(O)(CNc3n[nH]c(S)n3)C(C)O2)C(C)C(OC2OC(C)CC(N(C)C)C2O)C(C)(O)CC1C (centres unmarked) [syzx-210]
Reply: 4
